# Measured Target: T1, ALK4 (activin type I receptor) (UniProt P36896)
# T1 sequence (looked up): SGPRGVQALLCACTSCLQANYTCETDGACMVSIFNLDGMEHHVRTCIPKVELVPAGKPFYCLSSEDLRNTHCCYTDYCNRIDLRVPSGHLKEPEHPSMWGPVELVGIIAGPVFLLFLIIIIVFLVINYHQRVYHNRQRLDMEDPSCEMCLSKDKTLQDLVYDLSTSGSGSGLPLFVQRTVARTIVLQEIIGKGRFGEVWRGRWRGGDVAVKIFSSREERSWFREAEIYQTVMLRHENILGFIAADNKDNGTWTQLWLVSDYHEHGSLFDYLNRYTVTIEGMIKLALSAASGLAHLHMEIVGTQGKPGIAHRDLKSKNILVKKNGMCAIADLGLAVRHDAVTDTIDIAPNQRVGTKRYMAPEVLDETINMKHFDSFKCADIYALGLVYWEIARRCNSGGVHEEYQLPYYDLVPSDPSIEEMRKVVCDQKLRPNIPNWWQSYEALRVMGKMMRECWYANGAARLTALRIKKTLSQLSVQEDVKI
# Procedure Summary: cell-based or functional assay
Result Type: % Activin Activity (A3-luciferase assay in 293T cells) (% of wild type activin-A)
I only need the number, thanks.

Looking for the measured % Activin Activity (A3-luciferase assay in 293T cells) (% of wild type activin-A) of activin-A H59P (ligand, human, UniProt P08476 311-426, looked up) GLECDGKVNICCKKQFFVSFKDIGWNDWIIAPSGYHANYCEGECPSHIAGTSGSSLSFPSTVINHYRMRGHSPFANLKSCCVPTKLRPMSMLYYDDGQNIIKKDIQNMIVEECGCS , can you help?
85

Looking for the measured % Activin Activity (A3-luciferase assay in 293T cells) (% of wild type activin-A) of activin-A I105A (ligand, human, UniProt P08476 311-426, looked up) GLECDGKVNICCKKQFFVSFKDIGWNDWIIAPSGYHANYCEGECPSHIAGTSGSSLSFHSTVINHYRMRGHSPFANLKSCCVPTKLRPMSMLYYDDGQNIIKKDAQNMIVEECGCS , can you help?
86

Looking for the measured % Activin Activity (A3-luciferase assay in 293T cells) (% of wild type activin-A) of activin-A P45A/S46A/H47A/I48A (ligand, human, UniProt P08476 311-426, looked up) GLECDGKVNICCKKQFFVSFKDIGWNDWIIAPSGYHANYCEGECAAAAAGTSGSSLSFHSTVINHYRMRGHSPFANLKSCCVPTKLRPMSMLYYDDGQNIIKKDIQNMIVEECGCS , can you help?
91

Looking for the measured % Activin Activity (A3-luciferase assay in 293T cells) (% of wild type activin-A) of activin-A T61P (ligand, human, UniProt P08476 311-426, looked up) GLECDGKVNICCKKQFFVSFKDIGWNDWIIAPSGYHANYCEGECPSHIAGTSGSSLSFHSPVINHYRMRGHSPFANLKSCCVPTKLRPMSMLYYDDGQNIIKKDIQNMIVEECGCS , can you help?
78
